System: PC-3 prostate
Test: NCI tumour cell line growth inhibition, 48 h
READOUT TYPE: TGI

State its TGI for this molecule: COc1cc(/C=C2\N=C(c3ccccc3)N(c3ccc(C(=O)c4ccccc4)cc3N3C(=O)/C(=C/c4ccc(O)c(OC)c4)N=C3c3ccccc3)C2=O)ccc1O
26.7 µM

State its TGI for this molecule: COc1ccccc1C(=O)NO
> 100 µM

State its TGI for this molecule: N#CC(C#N)=C/C=C/c1c(Cl)cccc1Cl
3.68 µM

State its TGI for this molecule: Cc1cnc2oc3ccc(O)cc3c2c1-c1ccccc1
> 100 µM

State its TGI for this molecule: CCOC(=O)C1=C(C)NC(=O)NC1CN1C(=O)c2ccccc2C1=O (centres undefined)
> 100 µM

State its TGI for this molecule: COc1ccc(C2CC(c3ccc(Nc4ccnc5cc(Cl)ccc45)cc3)=NN2C=O)cc1 (centres undefined)
> 100 µM

State its TGI for this molecule: CCCC1CC(=O)NC(=O)C1C(=O)OC(C)(C)C (centres undefined)
> 100 µM

State its TGI for this molecule: Oc1ccc2c3c1OC1c4[nH]ncc4C[C@H]4[C@@H](C2)N(CC2CC2)CC[C@]314 (some centres undefined)
> 100 µM

State its TGI for this molecule: Cc1cc(N2CCCCC2)nc(NC2CCCC(Nc3ccnc4cc(Cl)ccc34)C2)n1 (centres undefined)
2.86 µM

---

System: NCI-H23 lung
Assay: NCI tumour cell line growth inhibition, 48 h
Would you mind telling me the reported TGI of each entry?

State its TGI for this compound: Oc1ccc2ccccc2c1N=Nc1cc(Cl)ccc1Cl
> 50 µM

State its TGI for this compound: Cc1ccc(NC(=O)CC/C(CC(=O)C(C)(C)C)=N\NC(=O)C[n+]2ccccc2)cc1C
> 100 µM

State its TGI for this compound: CC[C@]12C=CCN3CCC4(c5cc([C@@]6(C(=O)OC)CC7CN(CCc8c6[nH]c6ccccc86)C[C@@H]6CCCC[C@H]76)c(OC)cc5N(C)C4[C@](O)(C(=O)OC)C1OC(C)=O)[C@@H]32 (stereo partly drawn)
< 0.01 µM

---

Tested on: BT-549 breast
Test: NCI tumour cell line growth inhibition, 48 h
Would you mind telling me the reported TGI of each entry?

State its TGI for this compound: CC(O)CN1c2ccccc2Sc2ccccc21 (stereo not drawn)
> 100 µM

State its TGI for this compound: COc1cc2cc(C(=O)N3CC(CCl)c4ccc([N+](=O)[O-])cc43)[nH]c2c(OC)c1OC (stereo not drawn)
> 100 µM

State its TGI for this compound: O=C(c1ccccc1Cl)n1oc2ccccc2c1=O
> 100 µM

---

System: MCF7 breast
Test: NCI tumour cell line growth inhibition, 48 h
Where a SMILES comes first, the peptide text is derived from it. [ ]: non-standard residue; d: D form. The star is where a group is joined. ξ: configuration not given here. ξF = NC(Cc1ccccc1)C(=O)O; Cbz = O=C(OCc1ccccc1)*; Aib = CC(C)(N)C(=O)O
Would you mind telling me the reported TGI of each entry?

Fetch value of TGI on MCF7 breast for COC(=O)[C@]12CC[C@@H](C)[C@H](C)[C@@H]1C1=CC[C@@H]3[C@@]4(C)C[C@@H](OC(=O)/C=C/c5ccccc5)[C@H](O)[C@@](C)(CO)[C@@H]4[C@H](O)C[C@@]3(C)[C@]1(C)CC2 .
11.5 µM

Fetch value of TGI on MCF7 breast for CN(C)CC(=O)Nc1ccc2ncnc(Nc3ccc(Oc4cccc(C(F)(F)F)c4)c(Cl)c3)c2c1 .
3.02 µM

Fetch value of TGI on MCF7 breast for COc1ccc2c3c1OC1C(OC)(OC)C=C[C@@]4(Br)[C@@H](C2)N(CC2CC2)CC[C@]314 (stereo partly drawn) .
> 100 µM

Fetch value of TGI on MCF7 breast for CC12CCC(=O)N1c1cncnc1N2 (stereo not drawn) .
> 10 µM

Fetch value of TGI on MCF7 breast for CCC1(CC)C(=O)N(C(=O)c2ccccc2)N(C(=O)c2ccc(Cl)cc2)C1=O .
> 75 µM

Fetch value of TGI on MCF7 breast for O=C(CSCC(=O)N/N=C/c1ccccc1)N/N=C\c1ccccc1 .
> 100 µM

Fetch value of TGI on MCF7 breast for COc1cc(CNCCN2C(=O)c3ccc4c5c(ccc(c35)C2=O)C(=O)N(CCNCc2cc(OC)c(OC)c(OC)c2)C4=O)cc(OC)c1OC .
1.05 µM

Fetch value of TGI on MCF7 breast for Cc1ccc2cccc(OC(=O)Nc3cccc(C(F)(F)F)c3)c2n1 .
8.05 µM

Fetch value of TGI on MCF7 breast for CN(C)Cc1cc(C(=O)/C=C/c2ccc(Cl)c(Cl)c2)cc(CN(C)C)c1O .
12.3 µM

Fetch value of TGI on MCF7 breast for COc1ccc(/C=C2\COc3ccc(O)c(O)c3C2=O)c(OC)c1OC .
86.5 µM

Fetch value of TGI on MCF7 breast for CCOC(=O)CNC(=O)C(Cc1ccccc1)NC(=O)C(C)(C)NC(=O)OCc1ccccc1 (stereo not drawn) (Cbz-[Aib]-[ξF]-Gly-OEt) .
> 100 µM

Fetch value of TGI on MCF7 breast for COc1ccc2c(C)c(Oc3c(Cl)c(Cl)c(O)c(C#N)c3C#N)oc2c1 .
> 100 µM

Fetch value of TGI on MCF7 breast for CCOC(=O)C(NC(C)=O)(Nc1ccc(S(N)(=O)=O)cc1)C(F)(F)F (stereo not drawn) .
> 100 µM

Fetch value of TGI on MCF7 breast for Cc1cc(=O)oc2c(CNC(CO)C(=O)O)c(O)ccc12 (stereo not drawn) .
> 100 µM

Fetch value of TGI on MCF7 breast for Oc1c(Cl)cc(Cl)cc1/C=N/Nc1nnc(N/N=C/c2cc(Cl)cc(Cl)c2O)c2ccccc12 .
> 100 µM

Fetch value of TGI on MCF7 breast for O=C(NCCCNCCN1C(=O)c2cccc3cc([N+](=O)[O-])cc(c23)C1=O)c1cc(-c2ccccc2)nc2ccccc12 .
6.51 µM

Fetch value of TGI on MCF7 breast for Cn1cc(C2=C(c3cn(-c4ccccc4)c4ccccc34)C(=O)NC2=O)c2ccccc21 .
> 25 µM

Fetch value of TGI on MCF7 breast for O=C1CSC(c2ccccc2)N1c1ccc(-n2c(-c3ccccc3)nc3ccccc3c2=O)cc1 (stereo not drawn) .
> 100 µM

Fetch value of TGI on MCF7 breast for CN(C)CCNC(=O)c1cc(Cl)cc2cc3ccccc3nc12 .
4.53 µM

Fetch value of TGI on MCF7 breast for O=C1/C(=C/c2ccc(O)cc2)CCc2ccc([N+](=O)[O-])cc21 .
> 100 µM

Fetch value of TGI on MCF7 breast for COc1ccc(NC(C)=O)cc1N1C(=O)/C(=C\c2ccccc2)SC1c1cc(OC)c(OC)c(OC)c1 (stereo not drawn) .
> 100 µM

Fetch value of TGI on MCF7 breast for CC(=O)NC(Cc1ccccc1)NC(=O)O (stereo not drawn) .
> 100 µM

Fetch value of TGI on MCF7 breast for C=CC(=O)N1C[C@@H]2CCOc3c(Cl)c(-c4c(O)cccc4F)c(F)c4ncnc(c34)N2C[C@H]1C .
34.5 µM

Fetch value of TGI on MCF7 breast for CCCCCCCCCCCCCC1=C(O)C(=O)C(CC2=C(O)C(=O)C(CCCCCCCCCCCCC)=C(O)C2=O)=C(O)C1=O .
> 100 µM

Fetch value of TGI on MCF7 breast for CCc1cnn2c(NCc3ccc[n+]([O-])c3)cc(N3CCCC[C@H]3CCO)nc12 .
> 100 µM

Fetch value of TGI on MCF7 breast for C=C(C)[C@@H]1CCC2=C[C@H](C/C(C)=C\C3=CC(C)=C(O3)[C@H]1O)OC2=O .
> 100 µM

Fetch value of TGI on MCF7 breast for N#Cc1ccc(-c2nc3c(N)nc(-c4ccccc4)nc3o2)cc1 .
> 100 µM

Fetch value of TGI on MCF7 breast for COc1ccc2nc3c([N+](=O)[O-])ccc4c3c(c2c1)NCCN4CCN(C)C .
> 10 µM
